Tested on: HUVEC
Test: antiproliferative activity on HUVEC cells
Assay type: cell-based
Conditions: Homo sapiens, HUVEC, 72 h
The entries below come with measured GI50 values attached.

{"Compound": "COc1ccc2c(c1)CCC1C2CC[C@@]2(C)C1C[C@H](NCc1ccccc1O)[C@H]2O (some centres unmarked) [6c]", "GI50 (µM)": 4.4}
{"Compound": "COc1ccc2c(c1)CCC1C2CC[C@]2(C)C[C@H](NCc3ccccc3O)CC12 (some centres unmarked) [3c]", "GI50 (µM)": 4.1}
{"Compound": "COc1ccc2c(c1)CCC1C2CC[C@@]2(C)C1CC[C@H]2NCc1cc2ccccc2cc1O (some centres unmarked) [1o]", "GI50 (µM)": 108}
{"Compound": "COc1ccc2c(c1)CCC1C2CC[C@]2(C)C1CC(NCc1ccccc1O)[C@@H]2O (some centres unmarked) [9c]", "GI50 (µM)": 11.2}
{"Compound": "COc1ccc2c(c1)CCC1C2CC[C@@]2(C)C1CC[C@@H]2NCc1ccccc1O (some centres unmarked) [2c]", "GI50 (µM)": 10}

---

Test: cytotoxicity on HeLa cells
Format: cell-based
Conditions: human, HeLa cells
Property Label: CC50 at 72 h (µM)

{"Compound": "COc1ccc2c(c1)CCC1C2CC[C@]2(C)C1CC(NCc1ccccc1O)[C@@H]2O (stereo partly drawn) [9c]", "Qualifier Symbol": "=", "Obs Value": 48.8}
{"Compound": "COc1ccc2c(c1)CCC1C2CC[C@@]2(C)C1C[C@@H](NCc1ccccc1O)[C@H]2O (stereo partly drawn) [5c]", "Qualifier Symbol": "=", "Obs Value": 11.3}
{"Compound": "COc1ccc2c(c1)CCC1C2CC[C@@]2(C)C1C[C@H](NCc1ccccc1O)[C@H]2O (stereo partly drawn) [6c]", "Qualifier Symbol": "=", "Obs Value": 11.3}
{"Compound": "COc1ccc2c(c1)CCC1C2CC[C@]2(C)C[C@@H](NCc3ccccc3O)CC12 (stereo partly drawn) [4c]", "Qualifier Symbol": "=", "Obs Value": 12}
{"Compound": "COc1ccc2c(c1)CCC1C2CC[C@@]2(C)C1CC[C@H]2NCc1ccccc1O (stereo partly drawn) [1c]", "Qualifier Symbol": ">", "Obs Value": 128}
{"Compound": "COc1ccc2c(c1)CCC1C2CC[C@]2(C)C1C[C@@H](NCc1ccccc1O)[C@@H]2O (stereo partly drawn) [10c]", "Qualifier Symbol": "=", "Obs Value": 11.5}
{"Compound": "COc1ccc2c(c1)CCC1C2CC[C@]2(C)C[C@H](NCc3ccccc3O)CC12 (stereo partly drawn) [3c]", "Qualifier Symbol": "=", "Obs Value": 20.7}
{"Compound": "COc1ccc2c(c1)CCC1C2CC[C@@]2(C)C1C[C@@H](NCc1ccccc1O)[C@@H]2O (stereo partly drawn) [7c]", "Qualifier Symbol": "=", "Obs Value": 10.1}
{"Compound": "COc1ccc2c(c1)CCC1C2CC[C@@]2(C)C1CC[C@H]2NCc1cc2ccccc2cc1O (stereo partly drawn) [1o]", "Qualifier Symbol": ">", "Obs Value": 113}
{"Compound": "COc1ccc2c(c1)CCC1C2CC[C@@]2(C)C1CC[C@@H]2NCc1ccccc1O (stereo partly drawn) [2c]", "Qualifier Symbol": "=", "Obs Value": 42.9}
{"Compound": "COc1ccc2c(c1)CCC1C2CC[C@@]2(C)C1CC[C@@H]2N(CCCn1ccnc1)CCc1ccccn1 (stereo partly drawn) [STS 948]", "Qualifier Symbol": "=", "Obs Value": 18.3}
{"Compound": "CC(C)CCC[C@@H](C)[C@H]1CCC2C3CCC4C[C@@H](O)[C@@H](O)[C@H](NCc5ccccc5O)[C@]4(C)C3CC[C@@]21C (stereo partly drawn) [12c]", "Qualifier Symbol": "=", "Obs Value": 38}
{"Compound": "COc1ccc2c(c1)CCC1C2CC[C@@]2(C)C1CC[C@@H]2NCc1cc2ccccc2cc1O (stereo partly drawn) [2o]", "Qualifier Symbol": ">", "Obs Value": 113}
{"Compound": "COc1ccc2c(c1)CCC1C2CC[C@@]2(C)C1C[C@H](NCc1ccccc1O)[C@@H]2O (stereo partly drawn) [8c]", "Qualifier Symbol": "=", "Obs Value": 5.9}
{"Compound": "COc1ccc2c(c1)CCC1C2CC[C@]2(C)C1C[C@H](NCc1ccccc1O)[C@@H]2O (stereo partly drawn) [11c]", "Qualifier Symbol": "=", "Obs Value": 6.4}

---

Test: plasma stability
Type: in vitro ADME
Conditions: human, plasma, read-out: Plasma Stability % remaining after 3 h

{"Molecule": "COc1ccc2c(c1)CCC1C2CC[C@@]2(C)C1CC[C@H]2NCc1cc2ccccc2cc1O (stereo partly shown)", "remaining at 3 h": "62.5%"}

---

Experiment: aqueous kinetic solubility
Assay type: physicochemical
Settings: Pion's buffer, pH 7.4, aqueous buffer, kinetic from dmso stock; read-out: Aqueous Solubility (Pion's Buffer)

{"Compound": "COc1ccc2c(c1)CCC1C2CC[C@@]2(C)C1CC[C@H]2NCc1cc2ccccc2cc1O (stereo partly shown) [1o]", "solubility, µg/mL": 0.3}

---

Experiment: in vivo
Design: species or system C57BL/6 mice
Details: C57BL/6, mouse, po, 100 mg/kg

{"Compound": "COc1ccc2c(c1)CCC1C2CC[C@@]2(C)C1CC[C@H]2NCc1cc2ccccc2cc1O (stereo partly shown)", "half-life": "> 8 h"}

---

System: P. falciparum (strain 3D7)
Test: 72 h 3H-hypoxanthine incorporation assay, asexual blood stages
Type: cell-based, Plasmodium falciparum
Conditions: Plasmodium falciparum, 3D7, 72 h 3H-hypoxanthine incorporation, asexual blood stages; read-out: Antiplasmodial activity IC50 Pf (3D7)
Property Label: IC50 (nM)

{"Compound": "COc1ccc2c(c1)CCC1C2CC[C@@]2(C)C1CC[C@@H]2/N=C/c1cc2ccccc2cc1O (stereo partly drawn)", "Property Label": "IC50", "Unit Of Measurement": "nM", "Qualifier Symbol": "=", "Obs Value": 5540}
{"Compound": "COc1ccc2c(c1)CCC1C2CC[C@@]2(C)C1CC[C@@H]2NCc1cc2ccccc2cc1O (stereo partly drawn)", "Property Label": "IC50", "Unit Of Measurement": "nM", "Qualifier Symbol": "=", "Obs Value": 6.6}
{"Compound": "Oc1cc2ccccc2cc1CNc1ccc2ccc3cccc4ccc1c2c34 [20o]", "Property Label": "IC50", "Unit Of Measurement": "nM", "Qualifier Symbol": ">", "Obs Value": 13000}
{"Compound": "COc1ccc2c(c1)CCC1C2CC[C@@]2(C)C1CC[C@@H]2NCc1cccc(O)c1 (stereo partly drawn)", "Property Label": "IC50", "Unit Of Measurement": "nM", "Qualifier Symbol": "=", "Obs Value": 741}
{"Compound": "COc1ccc2c(c1)CCC1C2CC[C@@]2(C)C1CC[C@@H]2N(CCCn1ccnc1)CCc1ccccn1 (stereo partly drawn)", "Property Label": "IC50", "Unit Of Measurement": "nM", "Qualifier Symbol": "=", "Obs Value": 675}
{"Compound": "COc1ccc2c(c1)CCC1C2CC[C@@]2(C)C1CC[C@@H]2NCc1cc(Cl)ccc1O (stereo partly drawn)", "Property Label": "IC50", "Unit Of Measurement": "nM", "Qualifier Symbol": "=", "Obs Value": 62}
{"Compound": "COc1ccc2c(c1)CCC1C2CC[C@@]2(C)C1C[C@H](NCc1ccccc1O)[C@H]2O (stereo partly drawn)", "Property Label": "IC50", "Unit Of Measurement": "nM", "Qualifier Symbol": "=", "Obs Value": 676}
{"Compound": "COc1ccc2c(c1)CCC1C2CCC2(C)C(NCc3cccc(O)c3)CCC12 (stereo not drawn)", "Property Label": "IC50", "Unit Of Measurement": "nM", "Qualifier Symbol": "=", "Obs Value": 434}
{"Compound": "COc1ccc2c(c1)CCC1C2CC[C@@]2(C)C1CC[C@H]2/N=C/c1ccccc1O (stereo partly drawn)", "Property Label": "IC50", "Unit Of Measurement": "nM", "Qualifier Symbol": ">", "Obs Value": 2500}

---

Tested on: P. falciparum (strain 3D7)
Assay: 72 h 3H-hypoxanthine incorporation assay, asexual blood stages
Type: cell-based, Plasmodium falciparum
Details: Plasmodium falciparum, 3D7, 72 h 3H-hypoxanthine incorporation, asexual blood stages; read-out: Antiplasmodial activity IC50 Pf (3D7)
Threshold-based label: IC50 under 200 nM gives Y, IC50 not under 200 nM gives N.

{"Compound": "CCN(CC)c1ccc(/C=N/[C@H]2CCC3C4CCc5cc(OC)ccc5C4CC[C@@]32C)c(O)c1 (stereo partly drawn) [2p]", "Class": "N"}
{"Compound": "COc1ccc(CNC2CCC3C4CCc5cc(OC)ccc5C4CCC23C)cc1 (stereo not drawn) [1k]", "Class": "N"}
{"Compound": "COc1ccc2c(c1)CCC1C2CC[C@]2(C)C1CC(NCc1ccccc1O)[C@@H]2O (stereo partly drawn) [9c]", "Class": "N"}
{"Compound": "COc1ccc2c(c1)CCC1C2CC[C@]2(C)C[C@@H](N)CC12 (stereo partly drawn) [4a]", "Class": "N"}
{"Compound": "COc1ccc2c(c1)CCC1C2CC[C@@]2(C)C1C[C@H](NCc1ccccc1O)[C@@H]2O (stereo partly drawn) [8c]", "Class": "N"}
{"Compound": "COc1ccc2c(c1)CCC1C2CC[C@@]2(C)C1CC[C@@H]2NCc1c(O)ccc2ccccc12 (stereo partly drawn) [2m]", "Class": "Y"}
{"Compound": "Oc1cc2ccccc2cc1/C=N/c1ccc2ccc3cccc4ccc1c2c34 [20n]", "Class": "N"}
{"Compound": "COc1ccc2c(c1)CCC1C2CC[C@@]2(C)C1CC[C@@H]2/N=C/c1ccccc1O (stereo partly drawn) [2b]", "Class": "N"}
{"Compound": "COc1ccc2c(c1)CCC1C2CC[C@]2(C)C[C@@H](NCc3ccccc3O)CC12 (stereo partly drawn) [4c]", "Class": "Y"}
